Experimental target: UniProt P05622
Protocol: Inhibition of Platelet-derived growth factor receptor beta (PDGFr)
Measured parameter: log10 IC50 (log10 of the value in µM)
Values reflect log10 of reported IC50 (µM).

Here are 3 compounds together with their reported answers.
compound="N[C@H](Cc1c([Se][Se]c2[nH]c3ccccc3c2C[C@H](N)C(=O)NCc2ccccc2)[nH]c2ccccc12)C(=O)NCc1ccccc1 (stereo in doubt; 34)" experimental_target="UniProt P05622" reported_measurement=1.41
compound="N[C@H](Cc1c([Se][Se]c2[nH]c3ccccc3c2C[C@H](N)C(=O)NCc2ccccc2)[nH]c2ccccc12)C(=O)NCc1ccccc1 (stereo in doubt; 33)" experimental_target="UniProt P05622" reported_measurement=1.15
compound=CNC(=O)c1c([Se][Se]c2[nH]c3ccccc3c2C(=O)NC)[nH]c2ccccc12 experimental_target="UniProt P05622" reported_measurement=0.90

Query CNC(=O)c1c([Se][Se]c2c(C(=O)NC)c3ccccc3n2C)n(C)c2ccccc12 yields log10 IC50 of 0.67

Memo: CCN(CC)CCNC(=O)c1c([Se][Se]c2[nH]c3ccccc3c2C(=O)NCCN(CC)CC)[nH]c2ccccc12 , reported log10 IC50: 1.11

Record summary for CCN(CC)CCNC(=O)c1c([Se][Se]c2c(C(=O)NCCN(CC)CC)c3ccccc3n2C)n(C)c2ccccc12 : reported log10 IC50 = 0.53

====

Experimental target: Platelet-derived growth factor receptor beta (Mus musculus, UniProt P05622)
Sequence (P05622 whole entry): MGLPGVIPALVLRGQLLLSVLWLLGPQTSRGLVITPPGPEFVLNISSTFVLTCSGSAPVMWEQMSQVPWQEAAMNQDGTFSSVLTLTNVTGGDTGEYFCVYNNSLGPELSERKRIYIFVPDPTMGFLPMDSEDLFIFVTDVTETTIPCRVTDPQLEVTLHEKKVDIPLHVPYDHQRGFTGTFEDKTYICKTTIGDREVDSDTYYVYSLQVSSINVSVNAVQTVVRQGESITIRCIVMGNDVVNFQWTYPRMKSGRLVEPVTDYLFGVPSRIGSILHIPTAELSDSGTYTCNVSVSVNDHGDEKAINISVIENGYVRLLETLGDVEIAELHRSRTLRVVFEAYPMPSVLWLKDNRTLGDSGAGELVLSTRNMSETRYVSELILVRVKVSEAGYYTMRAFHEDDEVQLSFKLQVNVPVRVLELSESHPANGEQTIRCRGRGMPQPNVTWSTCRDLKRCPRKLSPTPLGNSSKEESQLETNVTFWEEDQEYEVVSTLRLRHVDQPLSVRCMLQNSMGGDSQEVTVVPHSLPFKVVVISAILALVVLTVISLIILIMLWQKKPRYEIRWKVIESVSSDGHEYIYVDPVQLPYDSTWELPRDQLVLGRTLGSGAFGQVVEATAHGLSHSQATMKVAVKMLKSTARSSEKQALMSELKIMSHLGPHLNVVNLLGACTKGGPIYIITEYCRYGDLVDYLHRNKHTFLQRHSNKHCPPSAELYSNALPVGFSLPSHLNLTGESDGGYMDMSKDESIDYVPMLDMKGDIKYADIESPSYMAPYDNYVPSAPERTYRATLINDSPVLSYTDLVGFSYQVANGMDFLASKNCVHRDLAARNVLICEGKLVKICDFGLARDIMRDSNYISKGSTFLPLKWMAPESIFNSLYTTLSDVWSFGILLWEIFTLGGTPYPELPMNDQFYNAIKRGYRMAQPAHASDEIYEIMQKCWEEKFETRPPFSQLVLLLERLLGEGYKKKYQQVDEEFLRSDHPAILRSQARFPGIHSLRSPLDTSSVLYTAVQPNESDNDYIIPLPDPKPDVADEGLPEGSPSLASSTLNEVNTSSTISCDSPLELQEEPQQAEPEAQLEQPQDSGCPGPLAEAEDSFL
Protocol: Inhibition of Platelet-derived growth factor receptor beta (PDGFr)
Examples of molecules with documented IC50 follow.

Please review the following examples before continuing.
structure_as_smiles=Cn1c([Se][Se]c2c(C(=O)OC(C)(C)C)c3ccccc3n2C)c(C(=O)OC(C)(C)C)c2ccccc21 reported_measurement="> 31 µM"
structure_as_smiles=CNC(=O)c1c(SSc2c(C(=O)NC)c3ccccc3n2C)n(C)c2ccccc12 reported_measurement="28.1 µM"
structure_as_smiles=Cn1c([Se][Se]c2c(C(=O)O)c3ccccc3n2C)c(C(=O)O)c2ccccc21 reported_measurement="17.4 µM"
structure_as_smiles=O=C(NCc1ccccc1)[C@H](Cc1c([Se]c2[nH]c3ccccc3c2C[C@@H](NC(=O)C(F)(F)F)C(=O)NCc2ccccc2)[nH]c2ccccc12)NC(=O)C(F)(F)F reported_measurement="> 50 µM"

So for O=C(NCc1ccccc1)[C@H](Cc1c([Se][Se]c2[nH]c3ccccc3c2C[C@@H](NC(=O)C(F)(F)F)C(=O)NCc2ccccc2)[nH]c2ccccc12)NC(=O)C(F)(F)F , the logged IC50 turned out to be > 50 µM

Given item CCN(CC)CCn1c([Se][Se]c2c(C(=O)NC)c3ccccc3n2CCN(CC)CC)c(C(=O)NC)c2ccccc21 , the value recorded as its IC50 is 50 µM
